target: NADPH oxidase 4 (Homo sapiens); assay: NOX4-dependent H2O2 signal modulators, primary screen, NOX inhibitor project, cell-based, HEK293-NOX4, tetracycline-induced, Amplex Red fluorescence (AID 1160); settings: 45 min, higher = more signal, called active from +8 up or from −8 down
The source made the active and inactive calls.
Parameter: z-score

See these solved cases before continuing.
1. C=CC[C@]12N=C(c3ccc(OCCCO)cc3)O[C@H]1c1ccccc1N(CCC)C2=O	0.00147 (inactive)
2. C=C(C(=O)CC[C@@H](OC(=O)c1ccccc1-c1ccccc1C(=O)O)c1cccc(OCCO)c1)C(C)C	1.06 (inactive)
3. COCCOC(=O)N1C(=O)[C@@]2(c3cc(C#CCNC(N)=O)ccc31)[C@H](c1ccc(O)cc1)N1[C@H](c3ccccc3)[C@H](c3ccccc3)OC(=O)[C@H]1[C@@H]2C(=O)N1CCc2cc(OC)c(OC)cc2C1	-0.909 (inactive)
4. Cc1ccc(S[C@]2(C(=O)NCc3ccccc3)CC(=O)N(Cc3ccccc3C(F)(F)F)[C@@H]2c2ccc(CO)cc2I)cc1	-1.5 (inactive)
5. C=CCNC(=O)[C@@H]1[C@H]2C(=O)O[C@H](c3ccccc3)[C@H](c3ccccc3)N2[C@H](c2ccc(O)cc2)[C@@]12C(=O)N(C(=O)OCCOC)c1ccc(C#CCC(C(=O)OC)C(=O)OC)cc12	0.584 (inactive)
6. CN1C(=O)C2CC=C(C3=CCO[C@@H]3[C@H]3CCCN3S(=O)(=O)c3ccccc3[N+](=O)[O-])CC2C1=O (some centres undefined)	1.22 (inactive)

Problem: Name the recorded z-score for O=C(NC1CC1)[C@@H]1c2ccccc2C(=O)N(C2CCCCC2)[C@H]1c1ccc(CO)cc1 .
Solution: 0.589 (inactive)

Problem: Field request: z-score | item: CCCCC(=C=CC[C@H](O)c1cccc(OCCO)c1)C[C@H](O)c1cc(Cl)cc(Cl)c1O
Solution: -1.46 (inactive)

Problem: Given C=C(COC)/C(=C/C[C@@H](OC(C)=O)c1cccc(OCCO)c1)c1cnc2ccccc2c1 , state its recorded z-score.
Solution: -0.77 (inactive)

Problem: Report z-score for C=CCNC(=O)[C@H]1[C@@H]2C(=O)O[C@@H](c3ccccc3)[C@@H](c3ccccc3)N2[C@@H](c2ccc(O)cc2)[C@]12C(=O)Nc1ccccc12 please.
Solution: -0.789 (inactive)

Problem: Consider the molecule shown here: COC(=O)[C@]1(Cc2ccccc2CN=[N+]=[N-])N=C(c2ccc(OCCCO)cc2)O[C@@H]1c1ccccc1N=[N+]=[N-] What is its recorded z-score?
Solution: 0.298 (inactive)

Problem: # z-score lookup, item COC(=O)[C@@]1(Cc2ccc(OC)cc2)[C@H]2c3cc(C(=O)N(C)C)n(Cc4c(CO)[nH]cc(C)c4=O)c3C[C@H]2CN1C(=O)c1ccccc1
Solution: -0.719 (inactive)

Problem: For C[C@@]1([C@@H](NS(=O)(=O)c2cccc3cccnc23)c2ccc(-c3ccccc3)cc2)C[C@H]1C1CCCCC1 , what is its reported z-score?
Solution: -0.61 (inactive)

Problem: What does the data say about its z-score? Entry: COCCOC(=O)N1C(=O)[C@@]2(c3cc(C#CCNC(N)=O)ccc31)[C@H](C(N)=O)[C@H]1C(=O)O[C@H](c3ccccc3)[C@H](c3ccccc3)N1[C@@H]2c1ccc(O)cc1
Solution: -0.181 (inactive)
